Assay: qHTS Assay for Lipid Storage Modulators in Drosophila S3 Cells
Settings: BODIPY lipid droplet fluorescence, 18-24 h, cells fed with added oleic acid; series mostly up to 46.1 µM
Hit rate of the full screen: of about 320,000 compounds, about 2,100 (0.66%) were called active. Roughly 53% stayed inconclusive and do not appear here. Calls come from the whole dose curve; as a rule, active = well fitted inhibition curve with a large enough effect in the signal ratio, with a control signal flat (not every such curve was filed as active); inconclusive = small, poorly fitted or top-dose-only effect, or effect the other way, or a change in a side signal; inactive = flat fitted curve, though single readings scatter; the % refers to the signal ratio. The entries come from a sample that favours actives as a whole.
Choose the fitting class; nothing outside 1 = active, -1 = inactive is accepted.

Solved entries:
- Compound: "CN(C(=O)COC(=O)CCc1nc2ccccc2c(=O)[nH]1)C1CCS(=O)(=O)C1 (stereo not given)"
  Class Assignment: -1
- Compound: "COc1ccccc1CNS(=O)(=O)c1ccc(-n2cccn2)cc1"
  Class Assignment: -1
- Compound: "COc1ccccc1CNCc1cc(OC)c(OC)cc1OC"
  Class Assignment: -1
- Compound: "COc1ccccc1CNCC(c1ccccc1)c1ccccc1"
  Class Assignment: 1
- Compound: "O=C(Nc1nc(-c2ccc(Cl)cc2)cs1)C1=COCCO1"
  Class Assignment: 1

Outcome? Cc1nn(-c2ccccc2)c(Cl)c1/C=N/NC(=O)CNc1n[nH]c(=O)[nH]c1=O
-1

Outcome? O=C(CCN1CCOCC1)N1CCCC(Nc2ccc(F)cc2)C1 (stereo not given)
-1

Outcome? O=C(CCN1CCN(C(=O)c2ccccc2)CC1)c1ccc(Br)cc1
-1

Outcome? CC(C)(C)OC(=O)N[C@@H](CCCCNC(=O)OCc1ccccc1)c1nnc([C@H](CCCCNC(=O)OCc2ccccc2)NC(=O)OC(C)(C)C)o1
-1

Outcome? O=S(=O)(c1ccc(F)cc1)N1CCCN(Cc2c(F)cccc2F)CC1
-1

----------
Experiment: qHTS Assay for Lipid Storage Modulators in Drosophila S3 Cells;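 for cell number change: cells counted by Cell Tracker Red CMTPX staining in the red channel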
Details: BODIPY lipid droplet fluorescence, 18-24 h, cells fed with added oleic acid; measured here: cell count max response
The whole screen tested about 320,000 compounds, of which about 2,100 (0.66%) were called active. Not shown: some 53% with an inconclusive outcome. The sample holds actives, similar compounds and a random draw of the others, so the mix is not that of the screen.
Measurement Name: cell number change
Please format your answer as a value with the unit trailing.

Worked set:
- Compound: "Cc1ccc(-c2nc(NCc3ccco3)n(C(=O)c3ccco3)n2)cc1"
  cell number change: "-0.0963%"
- Compound: "COc1cc(CNc2ncn[nH]2)ccc1OCC(=O)NC(C)(C)C"
  cell number change: "-0.636%"
- Compound: "CCCC(C(=O)NCCC(C)C)N(Cc1ccccc1)C(=O)c1snc(C(N)=O)c1N (stereo unspecified)"
  cell number change: "-3.86%"
- Compound: "CN1CCN(CC(=O)c2cc(C(C)(C)C)c(O)c(C(C)(C)C)c2)CC1"
  cell number change: "15.8%"
- Compound: "CC(C)(C)c1cc(C(=O)CCN2CCOCC2)cc(C(C)(C)C)c1O"
  cell number change: "-17.7%"

Consider the compound Cc1ccc(/C=N/N2CCN(Cc3ccc(Cl)cc3)CC2)o1 and give its recorded cell number change.
-6.6%

----------
Assay: qHTS Assay for Lipid Storage Modulators in Drosophila S3 Cells
Conditions: BODIPY lipid droplet fluorescence, 18-24 h, cells fed with added oleic acid; series mostly up to 46.1 µM
Among all 320,000 compounds or so, about 2,100 (0.66%) were called active. Not shown: some 53% with an inconclusive outcome. The call rests on the fitted dose curve; in most records, active means well fitted inhibition curve with a large enough effect in the signal ratio, with a control signal flat (not every such curve was filed as active); inconclusive means small, poorly fitted or top-dose-only effect, or effect the other way, or a change in a side signal; inactive means flat fitted curve, though single readings scatter; the % refers to the signal ratio. What follows is part of a selection rich in actives, with near analogues and random picks from the rest.
Choose the fitting class; nothing outside yes (1) (active), no (0) (inactive) is accepted.

Solved entries:
- Compound: "COc1cccc(NC(=S)NCc2cccnc2)c1"
  Class Assignment: "no (0)"
- Compound: "COc1cc(NC(=S)NCc2cccnc2)cc(OC)c1OC"
  Class Assignment: "no (0)"
- Compound: "N#Cc1ccsc1NC(=O)CN(Cc1ccccc1)Cc1ccccc1"
  Class Assignment: "no (0)"

Outcome? COc1cccc(NC(=O)COc2ccc(C(=S)N3CCN(C)CC3)cc2OC)c1
yes (1)

Outcome? CC1CCCCN1C(=O)/C(=C\c1ccccc1)c1ccccc1 (stereo unspecified)
no (0)

Outcome? COc1cc(NC(=S)NCc2cccnc2)cc(OC)c1
yes (1)
